Entry source: paper PMC7443318

- target: UniProt:P16257
- Sequence (P16257 whole entry): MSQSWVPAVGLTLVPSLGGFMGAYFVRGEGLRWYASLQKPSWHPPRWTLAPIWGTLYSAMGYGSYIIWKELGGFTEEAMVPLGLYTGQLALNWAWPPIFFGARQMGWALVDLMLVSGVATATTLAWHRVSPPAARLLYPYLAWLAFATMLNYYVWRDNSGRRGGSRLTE
test-readout: Ki

stdin: Please report the recorded Ki for O[C@@H]1[C@H](O)[C@@H]2C[C@@H]2[C@H]1n1cnc2c(NCCc3cccc(Cl)c3)nc(C#Cc3ccc(Cl)s3)nc21 [Compound 26] .
stdout: ~350 nM
